Tested on: D-peptidase BogQ
Assay: Substrate activity at bacterial D-peptidase BogQ expressed in Escherichia coli BL21 assessed as enzyme-mediated compound hydrolysis at 50 uM incubated for 1 hr by UPLC-MS analysis
Type: ADME
Conditions: bacteria; read-out: Activity
Where a SMILES comes first, the peptide text is derived from it. [ ]: non-standard residue; d: D form. The star is where a group is joined. d(aIle) = CC[C@H](C)[C@@H](N)C(=O)O; NMeF = CN[C@@H](Cc1ccccc1)C(=O)O; dDab = NCC[C@@H](N)C(=O)O; Octanoyl = CCCCCCCC(=O)*; Dab = NCC[C@H](N)C(=O)O; Sar = CNCC(=O)O
ASSAY READOUT: metabolised at 1 h, 50 µM (%)
Express the result in % but write the number alone.

Item under review: CCCCCCCC(=O)N[C@@H](C(=O)N[C@H](CCN)C(=O)NCC(=O)N[C@H](CO)C(=O)N[C@H](Cc1c[nH]c2ccccc12)C(=O)N[C@@H](CO)C(=O)N[C@@H](CCN)C(=O)N[C@H](CCN)C(=O)N(C)[C@@H](Cc1ccccc1)C(=O)N[C@@H](CCC(=O)O)C(=O)N[C@H](C(=O)N[C@@H](C(=O)N[C@@H](C)C(=O)O)C(C)C)C(C)C)C(C)C (Octanoyl-[dV][dDab]G[dS][dW]S[Dab][dDab][NMeF]EV[dV]A-OH) . Reported metabolised at 1 h, 50 µM?
15

Item under review: CCCCCCCC(=O)N[C@@H](C(=O)N[C@H](CCN)C(=O)NCC(=O)N[C@H](CO)C(=O)N[C@H](Cc1c[nH]c2ccccc12)C(=O)N(C)CC(=O)N[C@@H](CCN)C(=O)N[C@H](CCN)C(=O)N(C)[C@@H](Cc1ccccc1)C(=O)N[C@@H](CCC(=O)O)C(=O)N[C@H](C(=O)N[C@@H](C(=O)N[C@@H](C)C(=O)O)C(C)C)C(C)C)C(C)C (Octanoyl-[dV][dDab]G[dS][dW][Sar][Dab][dDab][NMeF]EV[dV]A-OH) . Reported metabolised at 1 h, 50 µM?
43

Item under review: CCCCCCCC(=O)N[C@@H](C(=O)N[C@H](CCN)C(=O)NCC(=O)N[C@H](CO)C(=O)N[C@H](Cc1c[nH]c2ccccc12)C(=O)N(C)CC(=O)N[C@@H](CCN)C(=O)N[C@H](CCN)C(=O)N(C)[C@@H](Cc1ccccc1)C(=O)N[C@@H](CCC(=O)O)C(=O)N[C@H](C(=O)N[C@@H](C(=O)N[C@@H](C)C(=O)O)[C@@H](C)CC)C(C)C)C(C)C (Octanoyl-[dV][dDab]G[dS][dW][Sar][Dab][dDab][NMeF]EV[d(aIle)]A-OH) . Reported metabolised at 1 h, 50 µM?
46

Item under review: `CCCCCCCC(=O)N[C@@H](C(=O)N[C@H](CCN)C(=O)NCC(=O)N[C@H](CO)C(=O)N[C@H](Cc1c[nH]c2ccccc12)C(=O)N(C)CC(=O)N[C@@H](CCN)C(=O)N[C@H](CCN)C(=O)N[C@@](C)(Cc1ccccc1)C(=O)N[C@@H](CCC(=O)O)C(=O)N[C@H](C(=O)N[C@@H](C(=O)N[C@@H](C)C(=O)O)[C@@H](C)CC)C(C)C)C(C)C` . Reported metabolised at 1 h, 50 µM?
40

Item under review: `CCCCCCCC(=O)N[C@@H](C(=O)N[C@H](CCN)C(=O)NCC(=O)N[C@H](CO)C(=O)N[C@H](Cc1c[nH]c2ccccc12)C(=O)N[C@@H](CO)C(=O)N[C@@H](CCN)C(=O)N[C@H](CCN)C(=O)N[C@@](C)(Cc1ccccc1)C(=O)N[C@@H](CCC(=O)O)C(=O)N[C@H](C(=O)N[C@@H](C(=O)N[C@@H](C)C(=O)O)C(C)C)C(C)C)C(C)C` . Reported metabolised at 1 h, 50 µM?
39

Item under review: CCCCCCCC(=O)N[C@@H](C(=O)N[C@H](C)C(=O)NCC(=O)N[C@H](CO)C(=O)N[C@H](Cc1c[nH]c2ccccc12)C(=O)N(C)CC(=O)N[C@@H](CCN)C(=O)N[C@H](CCN)C(=O)N(C)[C@@H](Cc1ccccc1)C(=O)N[C@@H](CCC(=O)O)C(=O)N[C@H](C(=O)N[C@@H](C(=O)N[C@@H](C)C(=O)O)C(C)C)C(C)C)C(C)C (Octanoyl-[dV][dA]G[dS][dW][Sar][Dab][dDab][NMeF]EV[dV]A-OH) . Reported metabolised at 1 h, 50 µM?
11

Item under review: `CCCCCCCC(=O)N[C@@H](C(=O)N[C@H](CCN)C(=O)NCC(=O)N[C@H](CO)C(=O)N[C@H](Cc1c[nH]c2ccccc12)C(=O)N(C)CC(=O)N[C@@H](CCN)C(=O)N[C@H](CCN)C(=O)N[C@@](C)(Cc1ccccc1)C(=O)N[C@@H](CCC(=O)O)C(=O)N[C@H](C(=O)N[C@@H](C(=O)N[C@@H](C)C(=O)O)C(C)C)C(C)C)C(C)C` . Reported metabolised at 1 h, 50 µM?
39
